# Method description: in vivo
# Test conditions: Balb/C nu/nu, mouse, plasma, 100 mg/kg
Reported metric: concentration at 8 h (nM)
Answers are plain numbers, in nM.

Looking up "COc1cc(Cc2cnc(N)nc2N)cc(OC)c1OC" , I see its concentration at 8 h listed as 560

* * *

# Method description: in vivo
# Test conditions: Balb/C nu/nu, mouse, plasma, 100 mg/kg
Reported metric: concentration at 24 h (nM)
Give bare numbers, in nM.

Looking up "COc1cc(Cc2cnc(N)nc2N)cc(OC)c1OC" , I see its concentration at 24 h listed as 10

* * *

# System: T cells
# Method description: TMP dose and exposure time on membrane bound IL15 expression (Table 89)
# Assay type: cell-based
# Test conditions: T-cell, 6 h; read-out: EC50, uM (% IL15 + IL15Ra+)
Reported metric: EC50 (µM)
Numbers only, in µM.

Looking up "COc1cc(Cc2cnc(N)nc2N)cc(OC)c1OC" , I see its EC50 listed as 0.021

* * *

# Method description: in vivo
# Test conditions: Balb/C nu/nu, mouse, plasma, 30 mg/kg
Reported metric: concentration at 2 h (nM)
One number for each entry, in nM.

Looking up "COc1cc(Cc2cnc(N)nc2N)cc(OC)c1OC" , I see its concentration at 2 h listed as 1190

* * *

# Tested on: human donor T cells
# Method description: Shield-1 concentration and time dependent IL12 p40 in human T cells (Tables 94-96)
# Assay type: cell-based
# Test conditions: IL12 p40 from OT-IL12-026 T cells; MOI 13.3
Reported metric: pEC50
Numbers only, as −log10 of the molar value.

Looking up CC[C@H](C(=O)N1CCCC[C@H]1C(=O)O[C@H](CCc1ccc(OC)c(OC)c1)c1cccc(OCCN2CCOCC2)c1)c1cc(OC)c(OC)c(OC)c1 [Shield-1] , I see its pEC50 listed as 7.03

* * *

# Method description: in vivo
# Test conditions: Balb/C nu/nu, mouse, plasma, 30 mg/kg
Reported metric: concentration at 0.5 h (µM)
One number for each entry, in µM.

Looking up "COc1cc(Cc2cnc(N)nc2N)cc(OC)c1OC" , I see its concentration at 0.5 h listed as 9.84
